Values compiled from patent US11447466B2.

- Target: human TLR8 (Homo sapiens)
- Sequence (Q9NR97 27-1041): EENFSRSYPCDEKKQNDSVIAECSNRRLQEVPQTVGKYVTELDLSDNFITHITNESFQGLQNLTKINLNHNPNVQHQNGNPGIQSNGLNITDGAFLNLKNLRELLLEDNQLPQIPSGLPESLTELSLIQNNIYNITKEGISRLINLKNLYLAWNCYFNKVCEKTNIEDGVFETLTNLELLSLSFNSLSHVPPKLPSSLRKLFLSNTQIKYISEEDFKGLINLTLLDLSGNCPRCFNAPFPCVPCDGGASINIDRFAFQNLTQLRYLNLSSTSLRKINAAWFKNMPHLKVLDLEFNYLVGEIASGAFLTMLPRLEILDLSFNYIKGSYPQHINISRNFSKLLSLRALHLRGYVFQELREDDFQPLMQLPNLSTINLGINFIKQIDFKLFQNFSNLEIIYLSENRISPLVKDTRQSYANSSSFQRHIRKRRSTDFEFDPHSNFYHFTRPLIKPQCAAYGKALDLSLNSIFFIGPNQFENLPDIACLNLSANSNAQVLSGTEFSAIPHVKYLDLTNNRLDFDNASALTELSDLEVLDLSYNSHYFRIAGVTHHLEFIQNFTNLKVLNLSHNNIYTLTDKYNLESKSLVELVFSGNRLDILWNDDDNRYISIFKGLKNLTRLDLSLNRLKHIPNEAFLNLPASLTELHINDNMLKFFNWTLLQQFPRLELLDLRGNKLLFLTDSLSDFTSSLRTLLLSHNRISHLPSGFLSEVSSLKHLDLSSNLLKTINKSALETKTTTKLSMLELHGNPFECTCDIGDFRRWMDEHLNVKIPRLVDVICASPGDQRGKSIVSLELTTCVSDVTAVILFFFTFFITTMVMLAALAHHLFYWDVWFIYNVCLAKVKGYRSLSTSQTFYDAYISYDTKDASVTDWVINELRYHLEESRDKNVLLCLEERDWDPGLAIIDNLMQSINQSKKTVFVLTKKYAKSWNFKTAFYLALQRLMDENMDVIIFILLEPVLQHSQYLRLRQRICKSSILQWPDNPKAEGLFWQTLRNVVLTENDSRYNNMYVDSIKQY
- Test Name: TLR8 inhibition reporter assay (HEK-Blue SEAP reporter, R848 stimulation)
- Condition Notes: HEK-Blue cells overexpressing human TLR8, SEAP reporter, R848 15.9 μM, 22 hour incubation
Property: IC50 (nM)

The cases that follow already have their IC50 on record.
- Cc1cc(-c2[nH]c3ccc(C4CCN(Cc5ccc(OC(F)(F)F)cc5)CC4)cc3c2C(C)C)cn(C)c1=O: 50.6
- CN[C@@H](C)C(=O)N1CCC(c2ccc3[nH]c(-c4cc(C)c(=O)n(C)c4)c(C(C)C)c3c2)CC1: 5.5

(1) COCCn1cc(-c2[nH]c3ccc(C4CCNCC4)cc3c2C(C)C)cc(C)c1=O
(2) CC(C)c1c(-c2ccc(=O)n(C)c2)[nH]c2ccc(C3CCN(CC(=O)N(C)C)CC3)cc12
Prompt: // compare: 1 vs 2 , metric IC50, want the smaller Select an item and report its label.
Response: 1
